Organism: Homo sapiens
Assay: Selectivity ratio; ratio of pEC50 for human adenosine A2B receptor to pEC50 for human adenosine A3 receptor
Selectivity ratio of 100 or higher: criterion met. Under 100: criterion not met.

QUERY: Record CCCNc1nc(N)nc2c1ncn2[C@@H]1O[C@H](C(=O)NC)[C@@H](O)[C@H]1O ; criterion: Selectivity ratio no lower than 100. Met?
RESULT: criterion met

QUERY: Likewise for CNC(=O)[C@H]1O[C@@H](n2cnc3c(NCc4ccccc4)nc(N)nc32)[C@H](O)[C@@H]1O ?
RESULT: criterion not met

QUERY: Same thing, different compound: CNC(=O)[C@H]1O[C@@H](n2cnc3c(NC4CCC4)nc(N)nc32)[C@H](O)[C@@H]1O
RESULT: criterion not met

QUERY: Try the compound CNC(=O)[C@H]1O[C@@H](n2cnc3c(NCCc4ccccc4)nc(N)nc32)[C@H](O)[C@@H]1O
RESULT: criterion not met

QUERY: Query CNC(=O)[C@H]1O[C@@H](n2cnc3c(NC4CCCC4)nc(N)nc32)[C@H](O)[C@@H]1O next
RESULT: criterion not met

QUERY: Here is the next compound: CNC(=O)[C@H]1O[C@@H](n2cnc3c(NCc4cccc(Cl)c4)nc(N)nc32)[C@H](O)[C@@H]1O
RESULT: criterion met

QUERY: Try the compound CNC(=O)[C@H]1O[C@@H](n2cnc3c(NC)nc(N)nc32)[C@H](O)[C@@H]1O
RESULT: criterion met

QUERY: Query CCNc1nc(N)nc2c1ncn2[C@@H]1O[C@H](C(=O)NC)[C@@H](O)[C@H]1O next
RESULT: criterion met

QUERY: Then CNC(=O)[C@H]1O[C@@H](n2cnc3c(NCC(c4ccccc4)c4ccccc4)nc(N)nc32)[C@H](O)[C@@H]1O ?
RESULT: criterion not met

QUERY: Now this one: CNC(=O)[C@H]1O[C@@H](n2cnc3c(NC4CCCCC4)nc(N)nc32)[C@H](O)[C@@H]1O
RESULT: criterion not met

QUERY: Now consider CCNc1nc(NC2CCCC2)c2ncn([C@@H]3O[C@H](C(=O)NC)[C@@H](O)[C@H]3O)c2n1 and answer again.
RESULT: criterion met

QUERY: Please answer likewise for CCCCNc1nc(N)nc2c1ncn2[C@@H]1O[C@H](C(=O)NC)[C@@H](O)[C@H]1O
RESULT: criterion not met

QUERY: Now give it for CNC(=O)[C@H]1O[C@@H](n2cnc3c(NC4CCCC4)nc(NC)nc32)[C@H](O)[C@@H]1O too.
RESULT: criterion met
